As shown below, each of these variants has a reported normalized RNA/DNA level with ligand (log10) value.
B1: library; a variant is named by its letters at N, in order (parent)
chain: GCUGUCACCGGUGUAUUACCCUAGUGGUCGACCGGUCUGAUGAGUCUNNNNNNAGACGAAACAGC

Variants of: B1
ASSAY REMARKS: normalized RNA/DNA level with ligand (relative to sTRSVctl = 100) (log10 (% of sTRSVctl)); ligand: hypoxanthine (xanthine aptamer); higher = less ribozyme self-cleavage, higher mRNA level
EXPERIMENTAL CONDITIONS: ligand concentration (+) RNA-Seq: 5 mM, HEK293T, reporter: mCherry (pCS4076), ligand present: yes
# answer = number (no unit)

UAUGCU    1.92
AGUUAG    1.8
ACAGCG    1.92
GUACGC    1.95
ACUCCA    2.01

Could you tell me which normalized RNA/DNA level with ligand (log10) is on file for `CUGCUA` ?
1.95

What do we get for `UCGAGA` ?
1.74

Continue with `AGUUCG`
1.86
